Test: soluble fraction after stress (log2 fold change); higher = more stays soluble; pooled small domains, quantitative proteomics;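 also: 20 min heating vs room temperature control held 20 min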
Conditions: stress: 75 degC
Provide the recorded soluble fraction (log2) for the entries that follow.

Fill in: soluble fraction (log2) of HMATAPQIRAIYALGSKLGINQNSREDNLHQLVYSITGKESIKGLTNYEAARVQSELANMERK is ___
0.323

Fill in: soluble fraction (log2) of HMSRFLEGILQRRAGGKNYFVPDDGSNPIFIADRNSAGAANGDRVRIAQFARRPRSGPEGEVVEILKRAK is ___
-0.0772

Fill in: soluble fraction (log2) of HMVNGEFIDRIKVILQENNATRKKDRLTKTRMYQLLQEEGYEGSYSAFTYQVRIIEEELGINNK is ___
-2.31

Fill in: soluble fraction (log2) of HMHLKRQEAINLGAYLLGAELRIHRLSLEELGSERIDEMLAAINYKTLDDLLADIGLGNRPARFVARQLG is ___
-1.86

Fill in: soluble fraction (log2) of HMAANKIDEDRNTELLQVIQNKFPDADAATKKSVKEIMKEHDIPNFKNADDIPTAVLEQIVKVLNQ is ___
-0.378

Fill in: soluble fraction (log2) of HMRMTKQRQAVLDELTRVTDFRSAQQIFEDLHSQGHRVGLATIYRSLQGLAEDGSVDTLRSSDGESLY is ___
-0.206

Fill in: soluble fraction (log2) of HMNNISKKIKELREQNNITQNKLANDLFIKQQTVAQWENGSRALKADSIISLAKYFNVSTDYLLGLTEN is ___
-0.898

Fill in: soluble fraction (log2) of HMGGREEAGTDIARLLGYINDIHGEELIAKLEYYQKMLGSENFAVLMSRLPDGQKKELREQNLYSEYV is ___
-0.152

Fill in: soluble fraction (log2) of HMHRGEIVDGVIASVNPRSILIDIGGKSDALVHPRELERMSDEDLRSLKPGQDVSVYVIETDSDGTMLVSL is ___
0.0809

Fill in: soluble fraction (log2) of HMNRGITVIVNNEEIKMKEKAQYVVVDIFDYIDFDLTVPKGSINITLNGENTPYTASIKDGDVIEVFW is ___
-1.09

Fill in: soluble fraction (log2) of HMSDEVNTDKAFRAIDSTLNRNVKGIAPRDHTLLRNTMITYFKSNDYIDYDTMIQSTLENYKPTELEQDKM is ___
0.0497

Fill in: soluble fraction (log2) of HMDYGTATASAILYLEKIDPENPYLLLAKDTITTNPKMSVNFALKGIIESKKGEKEENLNKALEIMSSL is ___
-0.144

====

Assay: soluble fraction after stress (log2 fold change); higher = more stays soluble; pooled small domains, quantitative proteomics
Conditions: stress: 75 degC
ASSAY ENDPOINT: soluble fraction (log2)
The answer should be a number; do not append a unit.

Fill in: soluble fraction (log2) of HMGIERTNADTSFSVNVYGKELIITSNKPLVVNIYAIDGTLVRTEQVTIGVNTVSGLPSGIYVVGQQKVVI is ___
-1.1

Fill in: soluble fraction (log2) of HMQMSPREKMIYSFIESHPGTKSGEIAEKLNVPLPTVKRILSEMVSGNFIAKHGSGIGTNYSTEK is ___
0.335

Fill in: soluble fraction (log2) of HMGASTQLVEIKNAYENGEWQNVIDLAGKLHEKYNGSEEDKEAQEMAKNSQSKLDEAAAAKAAEEA is ___
0.0816

Fill in: soluble fraction (log2) of HMGQELTMPDLKSMSRSNAEEKLKKMGLKLGAVFEENAKEPAGTVINQDPRSGSKITKGQTVDITVSLGEK is ___
0.265

Fill in: soluble fraction (log2) of HMDFIEYIISEESKGLRADQAISMENDKFSRSLIQKWIKKGRVLVNGRKIKPKDIVNLNDKITINPEESIN is ___
-0.36

Fill in: soluble fraction (log2) of HMKTRNISGNHEAVWQAVRSRTQAGHPTTRAVIMDDLKAQGLNTQKFSRWLKKLVDDGSVYMDGDTIIMGK is ___
-0.306

Fill in: soluble fraction (log2) of HMDFTISDADFHRLVQFIQQNYGVALSKKRQLISSRLSHSLRELGYKDFRTFLEHLFSTRDPADLELVLNK is ___
-1.59

====

Experiment: soluble fraction after stress (log2 fold change); higher = more stays soluble; pooled small domains, quantitative proteomics
Conditions: stress: 75 degC
Provide the recorded soluble fraction (log2) for the entries that follow.

Fill in: soluble fraction (log2) of HMTTQIPEEVQKRVNQFYEALDEEDYGEAKQILEELEKATAPDHPTLIQMRTRYEFDTMELR is ___
0.329

Fill in: soluble fraction (log2) of HMGLLVPELTAEENVSLAAMIAGVPRQQARSISADLLNRLGLGQMLDRRMGEMSGGQAQRVAIAPIYGKF is ___
-0.408

Fill in: soluble fraction (log2) of HMSGDYRALYSSLPPERASSVVDALNVAGIPYRIQDSTGAIMVPAEQIYDARIRLAGQGLGK is ___
0.104

Fill in: soluble fraction (log2) of HMREPQMVTVNGDKVTHGHAYRSNVNPEDWYFTARINGQQLKPQKMEPADVAAYDKKEIGVPELMQR is ___
-0.275

Fill in: soluble fraction (log2) of HMEDLDKIISAYLDENPQIVSDYGKGNKKAVNSAIGFVMKSTGGKYSSSDIVDAVRSMIVSISV is ___
-0.667

Fill in: soluble fraction (log2) of HMVWTAGEVVERIRERVGHPATIRELMQVLTIPPEDRHRFRRRIMQLVEAGELIRIRGNRYGLAD is ___
-2.59

Fill in: soluble fraction (log2) of HMEPERRHLEVPAEAEGERIDRFLASQLENLSRSRIQALIKAGYVRNRRGTIEDPGLRVKPGDAFVVDLPP is ___
0.354

Fill in: soluble fraction (log2) of HMGNIITQEAAVKLAQDRVPNATLVKIEYDFDDGRPVYEGELREGRWEYEFEIDAATGEFLKWEKD is ___
0.0823

Fill in: soluble fraction (log2) of HMGVMTGAEFVGNTVASVERNLIIDTLKHTMGNRTTAANILGISIRTLRNKLKQYQNEGFDIPE is ___
-1.11

Fill in: soluble fraction (log2) of HMTRETTQAWWEARQTLPSGEQRSAASLSQEASHVRRFYRWAMQQGLTDRNPADWLPDVRQK is ___
-0.603

Fill in: soluble fraction (log2) of HMNINLDINTYTVKELEKLLKLEVPYSDNNVFEKKNLMVKMIQTSTIAETKKEELYIFLDNIYNRLTNNLE is ___
-1.59

Fill in: soluble fraction (log2) of HMIIVMSANANAREISEVIARIRAMGYDVHLSHGKERTIIGVIGRGTPIDREQLSLMSGVQQVMPV is ___
-2.44

Fill in: soluble fraction (log2) of HMPFTLDGVNEGSRNDQAARMSGYLISKNLNMDFIKFFMQSWNRQNSPPLSQREINSVVDNVKRTHDRKNK is ___
-1.88

Fill in: soluble fraction (log2) of HMQLFKFKNAMMELAKNKNITLDTAEKAIGLEAGFTELVARGVKELALSDVIKISKYFNTTMDSVLD is ___
-1.44

Fill in: soluble fraction (log2) of HMEELPIIVAQRFLNIFRQLHIFSDERREAFNKMLLELPPEVKSIFQSLPGGTPLQEYMEDLEQKSK is ___
-0.721

Fill in: soluble fraction (log2) of HMTKIAFPQMLNKYRLQKNLTMEQLAEEVGKTKSTISKWEAGTRSPKIYEIEEIAKYFGVEPQTMMF is ___
-0.107

Fill in: soluble fraction (log2) of HMASVDDILDRFKQAAKVTTDADLAKVLGLSRQSIAAARLRAKIPASWFPKMSSLFNISTEWLYRG is ___
-1.18

Fill in: soluble fraction (log2) of HMSQDINVFIKTNPENATIIWDGESKGTNGIFKSNAGAHRLRIEMQGYESIDQDIQVSDKQFSFEYNLKKE is ___
0.138

Fill in: soluble fraction (log2) of HMSENDTILAKFVSVMGNKNLELVIFPDIAYLKGQVSNPEDKTKAETVAQSLLGGKPLVSLIEFE is ___
-0.332

Fill in: soluble fraction (log2) of HMKQNNYATKKELNFFVSRLISLLSYRDFFNPIEKKESMINNIEAIFTRSSLTSQELRTLHGIISNLVE is ___
-3.57

Fill in: soluble fraction (log2) of HMDLDIGSVLQASRGEKKISLRQLAERTGLTASMLSQIERNLVNPSINTLKVIAAALEIPMYKFFMG is ___
-1.17

Fill in: soluble fraction (log2) of HMRPRQDRSEETRDRILDAVVELIAERGLAGVSHRAVADRAGVSLSATSYYFGSKAELERAALEEHYRR is ___
-0.881

Fill in: soluble fraction (log2) of HMSGNPLDTYYSKWSAEIKKGSPNAVISKEGDKYYVSIPGENRMAIIYENPHLIRMVNATRNIHVE is ___
-0.092

Fill in: soluble fraction (log2) of HMEGIAEILPASVRQKYGLIGLYDALRGLHFPGNMEEIKAARQRLAFEDTLMFSLTLSMMQYS is ___
-0.146
